# viability at 28.5 h, 10 µM per record follows
# ASSAY NOTES: in vitro
# EXPERIMENTAL PARAMETERS: human, hela cells, % viability
Entry rule: numbers only, all in %.

1) COc1ccc(CNc2ccc(N3CCOCC3)c(C(=O)O)c2)cc1OC | 95.2
2) Cc1ccccc1-n1nnnc1C(c1ccccc1)N(C)Cc1cccc([N+](=O)[O-])c1 (centres unmarked) | 91
3) c1cncc(OCCOc2nsnc2N2CCNCC2)c1 [CBK001825G] | 94.4
4) c1ccc(Cn2cc(-c3nccnc3OC(c3ccccc3)c3ccccc3)cn2)cc1 | 88.2

Consider now this further compound.
**Query** What viability at 28.5 h, 10 µM value was documented for this compound, CC(C)N(Cc1cccnc1)C(=O)Cn1c(C2CC2)nc2ccccc21 ?
**Result** 104
